assay: physchem; settings: pH 7.4, aqueous buffer, kinetic from dmso stock, Solubility Range
Experimental Readout: solubility at 24 h

> print(dat)
                        structure.as.smiles  experimental.readout       result
1  C#Cc1cc(-c2cnc(N3CCC(C)(C(=O)O)CC3)nc2)cc2nc(NC(=O)NCC)sc12    solubility at 24 h  > 800 µg/mL

query: For the molecule shown here, `CCNC(=O)Nc1nc2cc(-c3cnc(N4CCC(C)(C(=O)O)CC4)nc3)cc(C#Cc3nnc(C)s3)c2s1` , give the reported solubility at 24 h.
result: 12.5 to 400 µg/mL

query: Entry `CCNC(=O)Nc1nc2cc(-c3cnc(N4CCC(C)(C(=O)O)CC4)nc3)cc(-c3cc(=O)n(CCOC)cn3)c2s1` : reported solubility at 24 h = ?
result: 400 to 800 µg/mL

query: Item `CCNC(=O)Nc1nc2cc(-c3cnc(N4CCC(C)(C(=O)O)CC4)nc3)cc(-c3cncc(OC)n3)c2s1` has what recorded solubility at 24 h?
result: 12.5 to 400 µg/mL

query: I am curious: what solubility at 24 h value has been reported for `CCNC(=O)Nc1nc2cc(-c3ccnc(N4CCC(C)(C(=O)O)CC4)c3)cc(-c3ccccn3)c2s1` ?
result: 12.5 to 400 µg/mL

query: Report solubility at 24 h for `CCNC(=O)Nc1nc2cc(-c3cnc(N4CCC(C)(C(=O)O)CC4)nc3)cc(-c3cncc(OC(C)(C)C)n3)c2s1` please.
result: 400 to 800 µg/mL

query: // query solubility at 24 h value for entry `CCNC(=O)Nc1nc2cc(-c3cnc(N4CCC(C)(C(=O)O)CC4)nc3)cc(-c3ccnc(C#N)n3)c2s1`
result: > 800 µg/mL

query: solubility at 24 h lookup needed for `CCNC(=O)Nc1nc2cc(-c3cnc(N4CCC(C)(C(=O)O)CC4)nc3)cc(-c3ncc(C)cn3)c2s1` , thanks.
result: > 800 µg/mL

query: Given the entry `CCNC(=O)Nc1nc2cc(-c3cnc(N4CCC(CC)(C(=O)O)CC4)nc3)cc(-c3cnccn3)c2s1` , report its measured solubility at 24 h.
result: > 800 µg/mL

query: Give its solubility at 24 h value. Item: `CCNC(=O)Nc1nc2cc(-c3cnc(N4CCC(C)(C(=O)O)CC4)nc3)cc(-c3cc(C)ncn3)c2s1`
result: > 800 µg/mL
